Recorded measurements of growth, one per entry
- Test system: NCI-H226 lung
- Procedure Details: NCI-60 one-dose screen, 48 h (100 = growth as untreated, 0 = no growth, -100 = all killed)
- Applied Conditions: 10 µM unless noted
Compounds without any hit were thinned out: in the full panel of roughly 83,000, 20% have a hit.

{"Molecule": "COc1cc(NC2=C(Cl)C(=O)c3nc(C)ccc3C2=O)cc(OC)c1", "growth / %": 68.6}
{"Molecule": "CCc1ccc(NC(=O)N[C@@H](Cc2cccc(F)c2)C(=O)N[C@@H]2C(=O)N3CCC[C@H]3C(=O)N3CCCC[C@H]3C(=O)N[C@@H](CO)C(=O)N3C[C@H](C)C[C@H]3C(=O)O[C@H]2C)c(F)c1", "growth / %": -1.86}
{"Molecule": "Nc1c(C(=O)c2ccccc2)sc2nc(-c3cnccn3)cc(-c3cccs3)c12", "growth / %": 95.8}
{"Molecule": "COc1ccc2c(C3=C(c4c[nH]c5ccccc45)C(=O)N(O)C3=O)coc2c1", "growth / %": 74.9}
{"Molecule": "CC1(C)CC[C@]2(C(=O)O)CC[C@]3(C)C(=CCC4[C@@]5(C)C[C@@H](O)[C@@H]6OC(c7cccc([N+](=O)[O-])c7)OC[C@@]6(C)C5CC[C@]43C)C2C1 (stereo partly drawn)", "growth / %": 77.2}
{"Molecule": "O=C(NCCCNc1cc(-c2cn(-c3ccccc3)nc2-c2cccc(O)c2)ccn1)Nc1cccc(C(F)(F)F)c1", "growth / %": 62}
{"Molecule": "CN1C(=O)N(C)C2Nn3c(s/c(=C\\c4ccccn4)c3=O)=NC21 (stereo not drawn)", "growth / %": 103}
{"Molecule": "CC(=O)Oc1ccc(CCN2C(=O)CSC2=S)cc1", "growth / %": 89.4}

Data credit: PubChem BioAssay (NCI)
